B1: glmS ribozyme (parent)
chain: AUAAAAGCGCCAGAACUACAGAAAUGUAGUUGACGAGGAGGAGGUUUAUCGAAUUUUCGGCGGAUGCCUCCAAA

# Variants of: B1
# protocolText: self-cleavage kobs at 10000 uM GlcN6P; higher = faster cleavage; RNA array
# recordedConditions: with glucosamine-6-phosphate
This sample holds only a part of the variants without activity.
Label rule, in plain words: self-cleavage kobs at 10000 uM GlcN6P of 0.0001 s⁻¹ and up is yes (1), under 0.0001 s⁻¹ is no (0).

Field: example entries. Status: answers known.
mutationDescriptor | assignedCategory
A12G C50U G59U G60A | no (0)
C8G C16A A42U U65A | no (0)
A15U G44U C61A | no (0)
C8G A48U C71G | no (0)
C10G G40A | no (0)

Quick check, self-cleavage kobs at 10000 uM GlcN6P >= 0.0001 s⁻¹? A15U C34A A64U C68A
no (0)

Quick check, self-cleavage kobs at 10000 uM GlcN6P >= 0.0001 s⁻¹? C11A A14U A15G G29A G44U C61A
no (0)

Quick check, self-cleavage kobs at 10000 uM GlcN6P >= 0.0001 s⁻¹? C8G A15G
no (0)

Quick check, self-cleavage kobs at 10000 uM GlcN6P >= 0.0001 s⁻¹? G29C G43U C67U
no (0)

Quick check, self-cleavage kobs at 10000 uM GlcN6P >= 0.0001 s⁻¹? A52C
no (0)

Quick check, self-cleavage kobs at 10000 uM GlcN6P >= 0.0001 s⁻¹? A42G C71A
yes (1)

Quick check, self-cleavage kobs at 10000 uM GlcN6P >= 0.0001 s⁻¹? A15C G37C G40A G43U
no (0)

Quick check, self-cleavage kobs at 10000 uM GlcN6P >= 0.0001 s⁻¹? A20U G32C
no (0)

Quick check, self-cleavage kobs at 10000 uM GlcN6P >= 0.0001 s⁻¹? A33C G51A A64U
no (0)

Every entry's value here was drawn from the supplement of paper PMC7125110.
